Attribution: the supplement of paper PMC9233669

Test system: biotinyl-Phe-oxazolone
assay: self-aminoacylation, catalytic enhancement (BFO) (fold over background); higher = more active; k-Seq, kA / k0A0; sequences stand for … in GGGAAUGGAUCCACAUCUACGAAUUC…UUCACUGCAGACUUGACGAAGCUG
Fewer inactive variants are shown than the library holds.
outcome_measure: self-aminoacylation
Form: value (number only, do not type unit).

query_sequence	self-aminoacylation
AAGUUUGCUAUUGGUCGCAAG [Fam3.1 aminoacylation ribozyme variant]	1.46
AUUAGCCUGCUCAUCGAGUGA [Fam2.1 aminoacylation ribozyme variant]	12.2
CCACACUUCAACCAAUCCGUC [Fam1B.1 aminoacylation ribozyme variant]	1.33
AAGUUUGGUAAUAGUCACAAG [Fam3.1 aminoacylation ribozyme variant]	1.51
AAGAUUGCUAAUAUUCGCAAG [Fam3.1 aminoacylation ribozyme variant]	1.44
CUACUUCAAACAGUCGGUCUU [Fam1A.1 aminoacylation ribozyme variant]	0.838
CUGCUUCAAACAAUAGGUCUG [Fam1A.1 aminoacylation ribozyme variant]	0.781
UUUACCCUGAUCAUCGAGUGA [Fam2.1 aminoacylation ribozyme variant]	23.3
AUAACCCUGGUGAUCGAGUGA [Fam2.1 aminoacylation ribozyme variant]	36.3
CCACAGUUCAACCAAUCGGUC [Fam1B.1 aminoacylation ribozyme variant]	6.48

Ask: Observed self-aminoacylation on biotinyl-Phe-oxazolone for GCACACGUCAAGCAAUCGGUC [Fam1B.1 aminoacylation ribozyme variant] , please.
Reply: 11.5

Ask: Test system biotinyl-Phe-oxazolone; read-out self-aminoacylation; what value for UCACGCUUCAAGCAAUCGGUC [Fam1B.1 aminoacylation ribozyme variant] ?
Reply: 84.1

Ask: For the record AUUAACCUAUGUCAUCGGGUG [Fam2.2 aminoacylation ribozyme variant] , what value of self-aminoacylation is listed for biotinyl-Phe-oxazolone?
Reply: 36

Ask: What value of self-aminoacylation on biotinyl-Phe-oxazolone does CUACACUUCAAGCUAUCGGUC [Fam1B.1 aminoacylation ribozyme variant] have?
Reply: 0.833

Ask: Identify the measured self-aminoacylation of CCACACUUCGAGCAAUCAGUC [Fam1B.1 aminoacylation ribozyme variant] for biotinyl-Phe-oxazolone.
Reply: 0.892

Ask: # value lookup — system biotinyl-Phe-oxazolone, readout self-aminoacylation, item CUUCUUCAAACAAUCGGUCUA [Fam1A.1 aminoacylation ribozyme variant]
Reply: 11.4

Ask: Notebook entry, biotinyl-Phe-oxazolone assay: self-aminoacylation of AAGUUUGCUAAUAGUCGGAAG [Fam3.1 aminoacylation ribozyme variant] = ?
Reply: 14.8

Ask: Record lookup: for biotinyl-Phe-oxazolone, what self-aminoacylation belongs to AUUCGCCUAGAUCAUCGGGUG [Fam2.2 aminoacylation ribozyme variant] ?
Reply: 19.1

---

System: biotinyl-Leu-oxazolone
assay: self-aminoacylation, catalytic enhancement (BLO) (fold over background); higher = more active; k-Seq, kA / k0A0; sequences stand for … in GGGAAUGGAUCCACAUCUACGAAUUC…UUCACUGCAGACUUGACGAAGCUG
This sample holds only a part of the variants without activity.
outcome_measure: self-aminoacylation

Consider the reported self-aminoacylation for these sequences:
query_sequence	assay_system	self-aminoacylation
AUUACCCCGAUCAUCGAGUGA [Fam2.1 aminoacylation ribozyme variant]	biotinyl-Leu-oxazolone	7.03
CCAUACUUCAAGCACUCGGUC [Fam1B.1 aminoacylation ribozyme variant]	biotinyl-Leu-oxazolone	0.962
AAGUUUGCUAAACGUCGCAAG [Fam3.1 aminoacylation ribozyme variant]	biotinyl-Leu-oxazolone	0.537
AUUCACCCAGGUCAACGGGUG [Fam2.2 aminoacylation ribozyme variant]	biotinyl-Leu-oxazolone	4.29
AUUCACCUAUGUCAUCGGGUG [Fam2.2 aminoacylation ribozyme variant]	biotinyl-Leu-oxazolone	7.41
AUUCAAUUAGGUCAUCGGGUG [Fam2.2 aminoacylation ribozyme variant]	biotinyl-Leu-oxazolone	7.25
AUUAACCUAGGUCAUCAGGUG [Fam2.2 aminoacylation ribozyme variant]	biotinyl-Leu-oxazolone	1.47
CUACGUCAAACAAUCCGUCUG [Fam1A.1 aminoacylation ribozyme variant]	biotinyl-Leu-oxazolone	0.974

Ask: Consider the sequence AUUCACGUAGCUCAUCGGGUG [Fam2.2 aminoacylation ribozyme variant] and give its measured self-aminoacylation.
Reply: 2.42

Ask: Return reported self-aminoacylation; argument: CUACCUCAAACAAUUGGUCUG [Fam1A.1 aminoacylation ribozyme variant]
Reply: 0.824

Ask: What value of measured self-aminoacylation is listed for ACACACUUCAAGAAAUCGGUC [Fam1B.1 aminoacylation ribozyme variant] ?
Reply: 1.32

Ask: Requested read-out: self-aminoacylation. Entry: CAACUUCAAACAAGCGGUCUG [Fam1A.1 aminoacylation ribozyme variant]
Reply: 1.12

Ask: Entry under review: CUACUUCGCACAAUCGGUCUG [Fam1A.1 aminoacylation ribozyme variant] . Reported self-aminoacylation?
Reply: 0.999

Ask: Which self-aminoacylation is listed for AUUGCCAUGGUCAUCGAGUGA [Fam2.1 aminoacylation ribozyme variant] ?
Reply: 10.1

Ask: Request the reported self-aminoacylation associated with CCACUUCAAACAAUCGGUGUG [Fam1A.1 aminoacylation ribozyme variant]
Reply: 2.34

Ask: Which self-aminoacylation is reported for this sequence? AUUACCCUGGUGGUCGAGUGA [Fam2.1 aminoacylation ribozyme variant]
Reply: 1.95

Ask: If you can, please state the reported self-aminoacylation value of AUUCAGCAAGGUCAUCGGGUG [Fam2.2 aminoacylation ribozyme variant] .
Reply: 7.63

Ask: Using the record for CUCUUUCAAACAAUCGGUCUG [Fam1A.1 aminoacylation ribozyme variant] , report its self-aminoacylation.
Reply: 1.21
